tgt: Peptide Deformylase (PDF) (Staphylococcus aureus)
Sequence (P68826 1-183): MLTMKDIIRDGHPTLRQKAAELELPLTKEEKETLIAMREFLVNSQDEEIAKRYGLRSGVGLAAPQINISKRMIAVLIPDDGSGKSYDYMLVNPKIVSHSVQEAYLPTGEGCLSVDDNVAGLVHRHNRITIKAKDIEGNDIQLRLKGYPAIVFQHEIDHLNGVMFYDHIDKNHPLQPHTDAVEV
Documented IC50 across a set of compounds
property-label: IC50 (µM)

>  <compound>
COC(=O)CNC(=O)c1ccc2c(c1)nc(C(CC(C)C)NC(=O)CCC(=O)O)n2CCO (stereo not shown)

>  <property-label>
IC50

>  <measured-value>
34.4

$$$$
>  <compound>
CCC(NC(=O)CCC(=O)NO)c1nc2cc(C(=O)NCC(=O)OC)ccc2n1C1CC1 (stereo not shown)

>  <property-label>
IC50

>  <measured-value>
0.105

$$$$
>  <compound>
COC(=O)CNC(=O)c1ccc2c(c1)nc(C(CC(C)C)NC(=O)CCC(=O)NO)n2C1CC1 (stereo not shown)

>  <property-label>
IC50

>  <measured-value>
0.496

$$$$
>  <compound>
COC(=O)CNC(=O)c1ccc2c(c1)nc(C(CCc1ccccc1)NC(=O)CCC(=O)O)n2Cc1ccccc1Cl (stereo not shown)

>  <property-label>
IC50

>  <measured-value>
18

$$$$
>  <compound>
COC(=O)CNC(=O)c1ccc2c(c1)nc(C(Cc1cccc3ccccc13)NC(=O)CCC(=O)NO)n2Cc1ccccc1 (stereo not shown)

>  <property-label>
IC50

>  <measured-value>
0.9

$$$$
>  <compound>
COC(=O)CNC(=O)c1ccc2c(c1)nc(C(Cc1ccc(O)cc1)NC(=O)CCC(=O)O)n2CC1CCCCC1 (stereo not shown)

>  <property-label>
IC50

>  <measured-value>
25

$$$$
>  <compound>
CCCCn1c(C(Cc2cccc3ccccc23)NC(=O)CCC(=O)O)nc2cc(C(=O)NCC(=O)OC)ccc21 (stereo not shown)

>  <property-label>
IC50

>  <measured-value>
0.074

$$$$
>  <compound>
CCCCn1c(C(Cc2ccccc2)NC(=O)CCC(=O)NO)nc2cc(C(=O)NCC(=O)OC)ccc21 (stereo not shown)

>  <property-label>
IC50

>  <measured-value>
0.019

$$$$
>  <compound>
CCC(NC(=O)CCC(=O)O)c1nc2cc(C(=O)NCC(=O)OC)ccc2n1Cc1ccco1 (stereo not shown)

>  <property-label>
IC50

>  <measured-value>
1.4

$$$$
>  <compound>
COC(=O)CNC(=O)c1ccc2c(c1)nc(C(CCCCN)NC(=O)CCS)n2CC1CCCCC1 (stereo not shown)

>  <property-label>
IC50

>  <measured-value>
27.1

$$$$
>  <compound>
COC(=O)CNC(=O)c1ccc2c(c1)nc(C(CC(C)C)NC(=O)CCC(=O)O)n2Cc1ccccc1 (stereo not shown)

>  <property-label>
IC50

>  <measured-value>
4

$$$$
>  <compound>
COC(=O)CNC(=O)c1ccc2c(c1)nc(C(CCCCN)NC(=O)CCC(=O)O)n2CC1CCCCC1 (stereo not shown)

>  <property-label>
IC50

>  <measured-value>
1.4

$$$$
>  <compound>
COC(=O)CNC(=O)c1ccc2c(c1)nc(C(Cc1ccccc1)NC(=O)CCC(=O)O)n2Cc1ccco1 (stereo not shown)

>  <property-label>
IC50

>  <measured-value>
1.6

$$$$
>  <compound>
CCCCn1c(C(CC(C)C)NC(=O)CCC(=O)NO)nc2cc(C(=O)NCC(=O)OC)ccc21 (stereo not shown)

>  <property-label>
IC50

>  <measured-value>
2.27

$$$$
>  <compound>
CCC(NC(=O)CCC(=O)NO)c1nc2cc(C(=O)NCC(=O)OC)ccc2n1Cc1ccccc1 (stereo not shown)

>  <property-label>
IC50

>  <measured-value>
0.067

$$$$
>  <compound>
CCCCn1c(C(CC(C)C)NC(=O)CCC(=O)O)nc2cc(C(=O)NCC(=O)OC)ccc21 (stereo not shown)

>  <property-label>
IC50

>  <measured-value>
2.6

$$$$
